Value source: PubChem BioAssay

# System Name: Torsin-1A-interacting protein 2 (Homo sapiens) (UniProt Q8NFQ8)
# Sequence (Q8NFQ8 whole entry, looked up): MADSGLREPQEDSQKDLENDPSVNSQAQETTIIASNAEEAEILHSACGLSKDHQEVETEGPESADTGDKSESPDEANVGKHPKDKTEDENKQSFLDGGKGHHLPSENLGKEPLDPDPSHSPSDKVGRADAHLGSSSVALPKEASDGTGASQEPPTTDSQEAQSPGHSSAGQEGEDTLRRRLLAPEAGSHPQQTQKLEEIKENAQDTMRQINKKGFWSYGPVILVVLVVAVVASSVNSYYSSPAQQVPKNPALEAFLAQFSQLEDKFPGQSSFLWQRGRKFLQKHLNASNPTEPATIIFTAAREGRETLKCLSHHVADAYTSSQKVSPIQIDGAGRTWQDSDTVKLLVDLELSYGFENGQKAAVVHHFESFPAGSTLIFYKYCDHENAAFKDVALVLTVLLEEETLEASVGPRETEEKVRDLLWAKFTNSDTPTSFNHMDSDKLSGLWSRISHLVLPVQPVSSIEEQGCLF
# Experiment Notes: small molecules binding lysate-expressed LULL1 – cell lysate, human LULL1 lysate, 635/667 nm fluorescence, primary screen (AID 1092);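 note: probe is lysate of COS7 cells overexpressing human LULL1; score merges per-feature 667 nm fluorescence with signal-to-noise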
# Measurement Context: small-molecule microarray, hLULL1 lysate binding, 635 nm fluorescence; higher = more signal
Consider the following compounds and their measured composite z-score readings.
Result Type: composite z-score

>>> observed("CN(C)CCCCCCNC(=O)[C@@H]1C[C@@H]2C(=O)NCC(=O)N2[C@@H]1c1ccc(O)cc1")
2.72
>>> observed("C[C@H]1NC(=O)C([C@@H](C)OCc2ccccc2)NC(=O)[C@@]23C(=O)N[C@@H](Cc4ccccc4)C2[C@H](C)[C@@]2(C)O[C@H]2C3/C=C/CC/C=C/CNC1=O (some centres not stated)")
-0.147
>>> observed("COc1ccc([Si](C)(C)[C@@H]2[C@@H](CCO)O[C@]3(C(=O)N(Cc4cccc(N5C(=O)COc6ccccc65)c4)c4ccccc43)[C@H]2C)cc1")
1.61
>>> observed("CCCNC(=O)[C@@H]1c2ccccc2C(=O)N(CC23CC4CC(CC(C4)C2)C3)[C@H]1c1ccc(CO)cc1")
2.79
>>> observed("COc1ccc(CCNC(=O)[C@@H]2c3ccccc3C(=O)N(Cc3ccccc3C(F)(F)F)[C@H]2c2ccc(CO)cc2)cc1")
2.92
>>> observed("CO[C@H]1O[C@H](CO)[C@@H](OC(=O)Nc2ccc(C(F)(F)F)cc2)[C@H](OC(=O)Nc2ccccc2)[C@H]1OC(=O)Nc1ccccc1")
3.14
>>> observed("CCOc1cc(C(O)C2C=CC3C(=O)NC(=O)C3N2Nc2ccccn2)ccc1O (configuration not stated)")
0.394
>>> observed("CN(C)CCCC[C@@H]1NC(=O)[C@H]2C[C@@H](C(=O)NCCCCCCNC(=O)CS)[C@@H](c3ccc(O)cc3)N2C1=O")
3.31
>>> observed("COCCOC(=O)N1C(=O)[C@@]2(c3cc(C#Cc4ccc(OC)cc4)ccc31)[C@H](C(=O)N1CCc3cc(OC)c(OC)cc3C1)[C@H]1C(=O)O[C@H](c3ccccc3)[C@H](c3ccccc3)N1[C@@H]2c1ccc(O)cc1")
2
>>> observed("O=C1O[C@H](c2ccccc2)[C@H](c2ccccc2)N2[C@H]1[C@@H](C(=O)N1CCCCCCC1)[C@]1(C(=O)Nc3ccccc31)[C@H]2c1ccc(O)cc1")
4.82
>>> observed("COc1ccc(CCNC(=O)[C@@H]2c3ccccc3C(=O)N(Cc3ccccc3)[C@H]2c2ccc(CO)cc2)cc1")
3.23
>>> observed("CC(C)(C)OC(=O)CC[C@]1(C(=O)N2CCCCC2)N=C(c2ccc(OCCCO)cc2)O[C@H]1c1ccccc1CN=[N+]=[N-]")
3.67
>>> observed("CCCC[C@H]1OB(O)C[C@H]2C1=C(COc1ccccc1)Cn1c(=O)n(-c3ccccc3)c(=O)n12")
2.24
>>> observed("Cc1ccccc1C(O)C1C=CC2C(=O)N(C)C(=O)C2N1Nc1ccc([N+](=O)[O-])cc1[N+](=O)[O-] (configuration not stated)")
3.45
>>> observed("COc1cc2c(cc1OC)CN(C(=O)[C@@H]1[C@H]3C(=O)O[C@H](c4ccccc4)[C@H](c4ccccc4)N3[C@H](c3ccc(O)cc3)[C@@]13C(=O)Nc1ccc(C#CCNC(N)=O)cc13)CC2")
1.22
>>> observed("O=C1O[C@H](c2ccccc2)[C@H](c2ccccc2)N2[C@H]1[C@@H](C(=O)N1CCN(c3ncccn3)CC1)[C@]1(C(=O)Nc3ccc(C#CCCO)cc31)[C@H]2c1ccc(OCCO)cc1")
3.13
>>> observed("CCCN1C(=O)[C@@H]2Cc3c([nH]c4ccccc34)[C@@H](c3cccc(O)c3)N2C1=O")
0.379
>>> observed("CC(C)C[C@@H]1NC(=O)[C@@H]2C[C@H](C(=O)NCc3ccc(F)cc3)[C@H](c3ccc(O)cc3)N2C1=O")
2.96
>>> observed("COc1cc(NN2C(C(O)c3ccc(I)cc3)C=CC3C(=O)N(C)C(=O)C32)cc(OC)c1OC (configuration not stated)")
2.75
>>> observed("C=CCN1C(=O)[C@@]2(O[C@@H](CCn3cc([C@H](O)c4ccccc4)nn3)[C@H]([Si](C)(C)c3ccc(OC)cc3)[C@H]2C)c2cc(NC(=O)c3ccc(OC)cc3)ccc21")
1.72
>>> observed("NC(=O)[C@H]1[C@@H]2C(=O)O[C@@H](c3ccccc3)[C@@H](c3ccccc3)N2[C@@H](c2ccc(O)cc2)[C@]12C(=O)Nc1ccc(C#CC3(O)CCCCCC3)cc12")
3.22
>>> observed("COC(=O)[C@@]1(Cc2ccccc2N=[N+]=[N-])N=C(c2ccc(OCCCO)cc2)O[C@H]1c1ccccc1")
1.21
>>> observed("CCCC=C(CCC)[C@@H](NS(=O)(=O)CC)c1ccccc1")
2.57
>>> observed("Cc1ccc(S[C@]2(C(=O)NCCN3CCOCC3)CC(=O)N(C3Cc4ccccc4C3)[C@@H]2c2ccc(CO)cc2)cc1")
2.77
>>> observed("COCCCNC(=O)[C@@]1(Cc2ccccc2)COC(c2ccc(OCCCO)cc2)=N1")
3.55
>>> observed("CCOC(=O)C1=CC[C@@H](c2cccc(Br)c2)N(S(=O)(=O)c2ccc(C)cc2)[C@H]1c1ccc([N+](=O)[O-])cc1")
2.96
>>> observed("COCCOC(=O)N1C(=O)[C@@]2(c3cc(C#CCCO)ccc31)[C@H](C(=O)N1CCc3cc(OC)c(OC)cc3C1)[C@H]1C(=O)O[C@H](c3ccccc3)[C@H](c3ccccc3)N1[C@@H]2c1ccc(OCCO)cc1")
2.59

* * *

# Lookup of reported z-score keyed by entry
# Experiment Notes: JC-1 mitochondrial signal, unstimulated myeloma cells – cell-based, JC-1 fluorescence, RPMI8226, 24 h, 100 nL compound, profiling panel (AID 1169); note: test concentration not given here
# Measurement Context: JC-1 mitochondrial potential fluorescence, higher = more signal
Result Type: z-score

>>> observed("CCCC=C(CCC)[C@@H](NC(=O)Cc1ccccc1)c1ccc(C(=O)OC)cc1")
-0.566
>>> observed("CCCC=C(CCC)[C@@H](NS(=O)(=O)c1ccccc1)c1ccc(C(F)(F)F)cc1")
-0.981
>>> observed("C[C@H]1NC(=O)C([C@@H](C)OCc2ccccc2)NC(=O)[C@@]23C(=O)N[C@@H](Cc4ccccc4)C2[C@H](C)[C@@]2(C)O[C@H]2C3/C=C/CC/C=C/CNC1=O (some centres undefined)")
0.452
>>> observed("O=C1N(CCS(=O)(=O)c2ccccc2)Cc2ccccc2C[C@@]12COC(c1ccc(OCCCO)cc1)=N2")
-1.03

* * *

# System Name: Homeobox protein Hox-A13 (Mus musculus) (UniProt Q62424)
# Sequence (Q62424 whole entry, looked up): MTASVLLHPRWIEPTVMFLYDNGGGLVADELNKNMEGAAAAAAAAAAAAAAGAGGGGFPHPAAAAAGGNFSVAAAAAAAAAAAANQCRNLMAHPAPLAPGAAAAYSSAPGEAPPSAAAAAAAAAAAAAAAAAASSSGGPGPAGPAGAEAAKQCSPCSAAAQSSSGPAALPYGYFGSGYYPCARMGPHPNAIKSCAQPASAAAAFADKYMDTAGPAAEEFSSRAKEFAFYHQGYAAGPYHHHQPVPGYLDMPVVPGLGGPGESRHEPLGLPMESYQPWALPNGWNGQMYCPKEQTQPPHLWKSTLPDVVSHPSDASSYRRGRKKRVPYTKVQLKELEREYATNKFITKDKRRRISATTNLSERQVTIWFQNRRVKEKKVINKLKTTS
# Experiment Notes: disruptors of Hoxa13 oligonucleotide interaction – biochemical, fluorescence polarization, labeled oligonucleotide, primary screen (AID 1185)
# Measurement Context: Hoxa13:DNA binding, 15 min, higher = more signal, called active from +8 up or from −8 down
Result Type: z-score

>>> observed("COC(=O)[C@@]1(Cc2ccccc2)[C@H]2c3cc(C(=O)N(C)C)n(Cc4ccc(O)c(OC)c4)c3C[C@H]2CN1C(=O)c1ccccc1")
-5.2
>>> observed("CO[C@H]1O[C@H](CO)[C@@H](OC(=O)Nc2cccc(F)c2)[C@H](OC(=O)Nc2ccc3c(c2)OCO3)[C@H]1OC(=O)Nc1ccc2c(c1)OCO2")
-7.92
>>> observed("COc1ccc(C#Cc2ccc3c(c2)[C@]2(C(=O)N3)[C@H](C(N)=O)[C@H]3C(=O)O[C@H](c4ccccc4)[C@H](c4ccccc4)N3[C@@H]2c2ccc(O)cc2)cc1")
-0.559
>>> observed("O=C1C[C@@](C(=O)NCc2ccccc2)(c2ccc([N+](=O)[O-])cc2)[C@@H](c2ccc(CO)cc2I)N1C1CCCCC1")
-3.45
>>> observed("CC1=C2[C@@H](CCc3ccccc3)OB(O)C[C@@H]2[C@@H]2C(=O)C=CC(=O)[C@@H]2C1")
-6.24
>>> observed("C=CCNC(=O)[C@H]1[C@@H]2C(=O)O[C@@H](c3ccccc3)[C@@H](c3ccccc3)N2[C@@H](c2ccc(OCCO)cc2)[C@]12C(=O)N(C(=O)OCCOC)c1ccc(C#CC3=CCCCC3)cc12")
2.62
>>> observed("O=C1c2ccccc2[C@](Cc2ccccc2I)(C(=O)NC2CC2)[C@H](c2ccc(CO)cc2)N1Cc1ccccc1Cl")
-4.21

* * *

# Experiment Notes: blockers of DNA damage checkpoint Chk1 activation – imaging, HeLa, hydroxyurea, phospho-Chk1 antibody, percent positive cells, primary screen (AID 1186)
# Measurement Context: hydroxyurea-induced phospho-Chk1 immunofluorescence imaging, higher = more signal
Result Type: z-score

>>> observed("O=C1C2C=CC(C(O)c3ccc(Br)cc3)N(Nc3ccccc3)C2C(=O)N1c1ccccc1 (configuration not stated)")
0.348
>>> observed("CN(C)C(=O)[C@@]1(CCC(=O)OC(C)(C)C)N=C(c2ccc(OCCCO)cc2)O[C@H]1c1ccccc1N=[N+]=[N-]")
-0.146
>>> observed("C[N+](C)(C)CCCC[C@@H]1NC(=O)[C@H]2C[C@@H](C(=O)NCCCCCCN)[C@@H](c3cccc(OCCO)c3)N2C1=O")
-0.699
>>> observed("O=C1N(CCS(=O)(=O)c2ccccc2)c2ccccc2[C@H]2OC(c3ccc(OCCCO)cc3)=N[C@@]12CCS(=O)(=O)c1ccccc1")
0.109
>>> observed("COc1ccc(CCNC(=O)[C@@H]2c3ccccc3C(=O)N(Cc3ccccc3C(F)(F)F)[C@H]2c2ccc(CO)cc2)cc1")
0.239
>>> observed("COc1cccc(C[C@H]2C[C@@H](CO[Si](C(C)C)(C(C)C)C(C)C)N3C(=O)[C@]4(C(C)=O)O[C@]23[C@H]2C(=O)N(C)C(=O)[C@H]24)c1")
0.527
>>> observed("COC(=O)[C@@]1(Cc2ccccc2)[C@H]2c3cc(C(=O)N4CCCC4)n(Cc4ccc(OC(F)(F)F)cc4)c3C[C@H]2CN1C(=O)c1ccccc1")
0.182
